# Test: in vitro
# Condition Parameters: human, hek293t cells
Please note: viability at 48 h, 25 µM exactly at 60% is Criterion not met. Only values below 60% get Criterion met.

Field: example entries. Status: answers known.
Compound	Cat
O=C1C=CC(=O)N1CCCCO [10-K07]	Criterion met
CSc1ccc(C=C(C#N)C(=O)Nc2c(C)cc(C)cc2C)cc1 [8-G15]	Criterion not met
CC(Cl)C(=O)N1CCCC1c1nc(-c2ccccc2)n[nH]1 (stereo not shown) [7-I09]	Criterion not met

# TODO verify viability at 48 h, 25 µM < 60% strictly for this compound: N#CC(=Cc1cccc2ccccc12)C(=O)NCc1ccco1 [8-N15] Criterion not met

Hello, I'm reviewing records and need to know if viability at 48 h, 25 µM of C=CC(=O)N(Cc1cn(C)nc1-c1ccc(F)cc1)C1CC(C)C1 (stereo not shown) [1-P09] is below 60%. Could you check? Criterion not met

Does the reported viability at 48 h, 25 µM of Cc1cccc(NC(=O)C(C#N)=Cc2cc(C)c(C)cc2C)c1 [8-C18] stay below 60%? Criterion not met

Here's an entry: O=C(CCl)NC(Cc1ccccc1)c1ccccc1F (stereo not shown) [7-N10] . Is its viability at 48 h, 25 µM below 60%? Criterion met

Just wondering, is viability at 48 h, 25 µM of C=CC(=O)Nc1ccc(C(=O)N2CCCC2C(=O)NC2CC2)cc1 (stereo not shown) [2-I21] below 60%? Criterion not met

Here's an entry: C=CC(=O)NCC(C)c1ncc(C)s1 (stereo not shown) [1-P10] . Is its viability at 48 h, 25 µM below 60%? Criterion met

Take the compound C=CC(=O)NCc1cn(C2CCC2)nn1 [3-D09] and say whether its viability at 48 h, 25 µM is less than 60%. Criterion met

---

# Test: in vitro
# Condition Parameters: human, hek293t cells
In this section we review reported viability at 48 h, 25 µM values for a set of compounds.
Output spec: scalar in %, unitless text.

Compound	viability at 48 h, 25 µM [%]
CCCc1ccc(-c2csc(NC(=O)CCl)n2)cc1	1.34
CNC(=O)C(NC(=O)CCl)c1ccccc1 (stereo not drawn)	0.807
Cc1nccn1Cc1ccc(NC(=O)C(C#N)=Cc2ccco2)cc1	93

// field: viability at 48 h, 25 µM; key: CC(C)NC(=O)C(C#N)=Cc1cccc(O)c1 ; value = 67.3

The measured viability at 48 h, 25 µM associated with Cc1ccccc1CN1CCC(NC(=O)CCl)CC1 reads 113

Summary for this compound, N#Cc1ccc2c(c1)CCN2C(=O)CCl : viability at 48 h, 25 µM is 0.856

viability at 48 h, 25 µM for CSc1ccccc1NC(=O)CCl is 0.595

For record CC(Cl)C(=O)NC(C)C(c1ccccc1Cl)n1cccn1 (stereo not drawn) the listed viability at 48 h, 25 µM is 119

For CC(=O)Nc1ccc(NC(=O)C(C)Cl)cc1 (stereo not drawn) the compound record lists viability at 48 h, 25 µM as 101

---

# Test: in vitro
# Condition Parameters: human, hek293t cells
# viability at 48 h, 25 µM binned as lo: < 40%; mid: ≥ 40% and < 90%; hi: ≥ 90%

Some solved cases for reference:
Compound	Cat
Cc1n[nH]c(C)c1C=C(C#N)C(=O)Nc1cc(Cl)cc(Cl)c1	mid
CC(Cl)C(=O)N(C)Cc1cc(C(C)(C)C)[nH]n1 (stereo not drawn)	mid
C#CCN1C(=O)C=CC1=O	hi
COc1ccc(C=C(C#N)C(=O)Nc2ccc3c(c2)OCCO3)cc1O	hi
C=CC(=O)Nc1cccc(-c2nc(COC)no2)c1C	mid

Assign a category based on measured viability at 48 h, 25 µM for CSC1=C(C#N)C2(CCCCC2)C(C#N)=C(NC(=O)CCl)N1 and give only the class name. lo

Please indicate the class for COCc1nnc([C@]23CC[C@H]2CCN3C(=O)C(C)Cl)o1 (mixture of isomers) based on its viability at 48 h, 25 µM. hi

Consider C=CC(=O)NC1CCC(F)(F)CC1F (stereo not drawn) . To which viability at 48 h, 25 µM class does it belong? mid

Category of COCCNC(=O)C(C#N)=Cc1sccc1C : hi

Which class is correct for the following compound? CC(C)CNC(=O)c1ccccc1NC(=O)CCl lo

Sort Cc1c(C=C(C#N)C(=O)Nc2ccccn2)cc(C#N)n1C into one of the categories. hi

Returns: class label. Input: C=CCNC(=O)C(C#N)=Cc1ccc(C#N)cc1 mid

Could you tell me which band O=C(CCl)NC(=O)Nc1ccccc1 belongs to? mid

In plain terms, what class is C=CC(=O)N1CCC(C(=O)Nc2ccc3c(c2)CCN3C(N)=O)CC1 ? hi

Bin? CC1(C)CN(C(=O)CCl)CCO1 lo

Which class does CC(C)(C)C1CCc2c(sc(NC(=O)CCl)c2C#N)C1 (stereo not drawn) fall in? lo

Category of CCc1ccc(Cc2cnc(NC(=O)CCl)s2)cc1 , please. lo
